test: Silicone O-ring passive dosing: dissolved concentrations, partitioning, losses and release in MSM; conditions: 15 °C, aqueous buffer
Test readout: solubility (µg/mL)
// units = µg/mL; emit number, no label

Take a look at these entries with their results.
Answer with the recorded solubility for the compound listed here: c1ccc2cc3ccccc3cc2c1
3.11

Report measured solubility; entry is c1ccc2c(c1)ccc1ccccc12
1.04

More entries:
Answer with reported solubility of c1ccc2ccccc2c1
20.5
